Where do these numbers come from? They come from PubChem BioAssay (NCATS).

Test: Quantitative High-Throughput drug screen in 47 multiple myeloma cell lines against the NCATS MIPE library collection: XG6_PLB cell viability assay (AID 1919865); note: nearly all actives have a fitted effect of over 40% in size
Details: XG6 myeloma viability, CellTiter-Glo ATP luminescence, 48 h; series mostly up to 45.8 µM
Records with an inconclusive call do not appear. Activity calls are given as the source filed them. Calls come from the whole dose curve; as a rule, active = well fitted cell-killing curve with a large enough effect; inconclusive = small, poorly fitted or top-dose-only effect, or effect the other way; inactive = no such curve, though single readings can be large or run the other way.
Mark one answer only. Choices: t (active), f (inactive)

{"molecule": "O=S(=O)(O)CCSSCCS(=O)(=O)O", "label-class": "f"}
{"molecule": "CCOC(=O)[C@@H](N)Cc1ccc(-c2cc(O[C@H](c3ccc(Cl)cc3-n3ccc(C)n3)C(F)(F)F)nc(N)n2)cc1", "label-class": "t"}
{"molecule": "Cn1cc(CNCC2CCN(c3ncc(C(=O)NO)cn3)CC2)c2ccccc21", "label-class": "t"}
{"molecule": "CC1(C)CC(O)CC(C)(C)N1[O]", "label-class": "f"}
{"molecule": "CCOc1cc2ncc(C#N)c(Nc3ccc(OCc4ccccn4)c(Cl)c3)c2cc1NC(=O)C=CCN(C)C", "label-class": "t"}
{"molecule": "NC(=O)Nc1sc(-c2ccc(F)cc2)cc1C(N)=O", "label-class": "t"}
{"molecule": "COc1cc2c(cc1O)CCC1C2CC[C@@]2(C)C1CC[C@@H]2O (some centres undefined)", "label-class": "t"}
{"molecule": "C[C@@]12C[C@@]3(O)O[C@@H](O1)[C@]1(COC(=O)c4ccccc4)[C@@H]3C[C@@]12O[C@@H]1O[C@H](CO)[C@@H](O)[C@H](O)[C@@H]1O", "label-class": "f"}

# input for lookup
Query: recorded result category for CC(=O)O[C@]1(C(C)=O)CC[C@H]2[C@@H]3C=C(C)C4=CC(=O)CC[C@]4(C)[C@@H]3CC[C@@]21C in this test t
